test system: Mycobacterium tuberculosis; assay: Antitubercular activity against Mycobacterium tuberculosis H37Rv ATCC 27294 after 28 days by two-fold serial dilution method; format: functional; settings: H37Rv ATCC 27294, 672 h
Hi! Could you tag entries with MIC below 10 µM as Fulfilled, and those at or above as Not fulfilled? Much appreciated.

Would you please look over these solved cases?
CN1CCc2c(sc(NC(=O)C3CCCCC3)c2C(N)=O)C1	Fulfilled
NC(=O)c1c(NC(=O)c2ccc(Oc3ccccc3)cc2)sc2c1CCCCCC2	Fulfilled
CN1CCc2c(sc(NC(=O)c3cccc4ccccc34)c2C(N)=O)C1	Not fulfilled

Input line: Identify whether the compound CN1CCc2c(sc(NC(=O)C3CCCC3)c2C(N)=O)C1 records MIC below 10 µM.
Output line: Fulfilled

Input line: Does the reported MIC of CC(=O)N1CCc2c(sc(NC(=O)C3CC3)c2C(N)=O)C1 stay below 10 µM?
Output line: Not fulfilled

Input line: Dear colleague, could you confirm whether MIC of CC(=O)N1CCc2c(sc(NC(=O)C3CCCC3)c2C(N)=O)C1 falls below 10 µM? Thanks.
Output line: Not fulfilled
